Exercise: for every item that follows, state its recorded gcPBM binding intensity (ln).
Test system: PfAP2-G AP2 domain (GST-tagged)
Assay: gcPBM binding intensity (ln(normalized median fluorescence intensity)); higher = stronger DNA binding
Whole data set: some 25,000 sequences, median “ln(normalized median fluorescence intensity)” near 10, cut for the highest 2% near 12. The sample as a whole holds a higher share of the highest values than the screen did.
// return just the number, without any unit appended

Value wanted: gcPBM binding intensity (ln) (PfAP2-G AP2 domain (GST-tagged)) of entry TTTAAACCTTAATATTGTACGCAAAAAAAAAAAGAA [XGTACX_site3757]
11.6

Value wanted: gcPBM binding intensity (ln) (PfAP2-G AP2 domain (GST-tagged)) of entry AATAAACATAGATGTACACACATATACAGATATATA [CACACA_site5570]
11.5

Value wanted: gcPBM binding intensity (ln) (PfAP2-G AP2 domain (GST-tagged)) of entry CAAATAAAAATAAGGAGTACAATTAAAAAAGGAAGG [XGTACX_site4366]
11.6

Value wanted: gcPBM binding intensity (ln) (PfAP2-G AP2 domain (GST-tagged)) of entry TATACTTTATATATTTTGTATATATATTTTTTTTAT [TGCATGCA_negctrl_site530]
9.64

Value wanted: gcPBM binding intensity (ln) (PfAP2-G AP2 domain (GST-tagged)) of entry AAAGAATTTAAATATTGTACGCAATATATAAAAAAA [XGTACX_site7616]
11.5

Value wanted: gcPBM binding intensity (ln) (PfAP2-G AP2 domain (GST-tagged)) of entry TAAATACATAGATGTACACACATTACAGATGTACAT [CACACA_site4692]
11.7

Value wanted: gcPBM binding intensity (ln) (PfAP2-G AP2 domain (GST-tagged)) of entry ATACATTCTAATACGTGTACATATATATATATATAT [XGTACX_site1881]
11.4

Value wanted: gcPBM binding intensity (ln) (PfAP2-G AP2 domain (GST-tagged)) of entry CCATTTATTATTTGGGGTACATTTAATTAATATTTT [XGTACX_site5940]
11.5

Value wanted: gcPBM binding intensity (ln) (PfAP2-G AP2 domain (GST-tagged)) of entry TACATTGTATACATATGTACACATATATATATATAT [XGTACX_site6174]
11.5

Value wanted: gcPBM binding intensity (ln) (PfAP2-G AP2 domain (GST-tagged)) of entry TACACACATTACAGATGTACATAAAATTAAAAAAAT [XGTACX_site1804]
11.3

Value wanted: gcPBM binding intensity (ln) (PfAP2-G AP2 domain (GST-tagged)) of entry TTTAATAATTATTAAAGTACAAAATAAATATTGAAT [XGTACX_site7538]
11

Value wanted: gcPBM binding intensity (ln) (PfAP2-G AP2 domain (GST-tagged)) of entry TGGAATAAAAAAAGGAGTACAATTAATTATTCTTAA [XGTACX_site8299]
11.8

Value wanted: gcPBM binding intensity (ln) (PfAP2-G AP2 domain (GST-tagged)) of entry TATATACATATATGTACACACATTACAGATGTACAT [CACACA_site966]
11.7

Value wanted: gcPBM binding intensity (ln) (PfAP2-G AP2 domain (GST-tagged)) of entry ACAGATATACATAAAAAAAAAATAATTTTACATATA [CACACA_negctrl_site929]
9.77

Value wanted: gcPBM binding intensity (ln) (PfAP2-G AP2 domain (GST-tagged)) of entry TATATACAAATATGTACACACATTACAGATGTACAT [CACACA_site6586]
11.8

Value wanted: gcPBM binding intensity (ln) (PfAP2-G AP2 domain (GST-tagged)) of entry AATATATACATATATGTACACACATTACAGATGTAC [CACACA_site8227]
11.5

Value wanted: gcPBM binding intensity (ln) (PfAP2-G AP2 domain (GST-tagged)) of entry TTTTTTTTTTTTTGGGGTACATTTTAATTAATATTA [XGTACX_site4866]
11.4

Value wanted: gcPBM binding intensity (ln) (PfAP2-G AP2 domain (GST-tagged)) of entry ATAAAATAATCTTATGCACACCAAAAATTTATATAA [CACACA_site8332]
10.2

Value wanted: gcPBM binding intensity (ln) (PfAP2-G AP2 domain (GST-tagged)) of entry TTTTTAATATATAAAGATAATAATAAATAAAATTCA [CACACA_negctrl_site657]
9.46

###

Exercise: for every item that follows, state its recorded gcPBM binding intensity (ln).
Test system: PfAP2-G AP2 domain (GST-tagged)
Assay: gcPBM binding intensity (ln(normalized median fluorescence intensity)); higher = stronger DNA binding
In all, about 25,000 sequences were measured (“ln(normalized median fluorescence intensity)”: median about 10, highest 2% from about 12 on). The sample holds the highest values, similar sequences and a random draw of the others, so the mix is not that of the screen.
// return just the number, without any unit appended

Quick one: gcPBM binding intensity (ln) of ATCATATGTATGGTGGTGCATTATGCATGAATTTTA [GTGCAC_site9798] ?
10.1

Quick one: gcPBM binding intensity (ln) of TACCTACACTTTTGGAGTACAATTAAAAAAAAAAAA [XGTACX_site1403] ?
11.5

Quick one: gcPBM binding intensity (ln) of TTTATTATTATATTATTTTAATTTTTCTTTAGTACA [GTGCAC_negctrl_site392] ?
10.3

Quick one: gcPBM binding intensity (ln) of AATAATTTCCAAAAATGTACATATATTTACATATAT [XGTACX_site1790] ?
10.9

Quick one: gcPBM binding intensity (ln) of TTTGTTTTATGTGGTTGTACACAAATACAATTTAAA [XGTACX_site5156] ?
11.6

Quick one: gcPBM binding intensity (ln) of TATTTTTACCCATAAAGTACACATAAATATAAAATA [XGTACX_site177] ?
11.5

Quick one: gcPBM binding intensity (ln) of CATATGCGTCTTGCCTTGCACACTTTTATGAAAAAA [CACACA_site2055] ?
10.4

Quick one: gcPBM binding intensity (ln) of ACTTTGCGTTAAAAGAGTACATAATATTTTTTTTTT [XGTACX_site7533] ?
11.2

Quick one: gcPBM binding intensity (ln) of GATATAATTATGTGTACACAATTTTTTTTTTTTTTT [CACACA_site4501] ?
11.7

###

Exercise: for every item that follows, state its recorded gcPBM binding intensity (ln).
Tested on: PfAP2-G AP2 domain (GST-tagged)
Test: gcPBM binding intensity (ln(normalized median fluorescence intensity)); higher = stronger DNA binding
The full ranking holds about 25,000 sequences; the median of “ln(normalized median fluorescence intensity)” is about 10, and the highest 2% start at about 12. This excerpt belongs to a sample that is enriched for the highest values.
// return just the number, without any unit appended

Quick one: gcPBM binding intensity (ln) of TTTATATGTTTTAAGTGTACACATATAATGTATTTT [XGTACX_site3069] ?
11.6

Quick one: gcPBM binding intensity (ln) of ATATGTATTAAGTGTACACATATAATGGGTTTTCTT [CACACA_site5328] ?
11.6

Quick one: gcPBM binding intensity (ln) of ATATGTTTTAAGTGTACACATATAATGTATTTTGTT [CACACA_site4929] ?
11.6

Quick one: gcPBM binding intensity (ln) of TTTTTCATAAAAAAATAAAAAAAATTAACATAGAAA [XGTACX_negctrl_site11] ?
9.95

Quick one: gcPBM binding intensity (ln) of ATATGTATGAAGTGTACACATATATTGTATTTTCTT [CACACA_site5503] ?
11.7

###

Exercise: for every item that follows, state its recorded gcPBM binding intensity (ln).
Tested on: PfAP2-G AP2 domain (GST-tagged)
Assay: gcPBM binding intensity (ln(normalized median fluorescence intensity)); higher = stronger DNA binding
Over roughly 25,000 sequences, “ln(normalized median fluorescence intensity)” has its median near 10; the highest 2% begin near 12. The sample holds the highest values, similar sequences and a random draw of the others, so the mix is not that of the screen.
// return just the number, without any unit appended

Quick one: gcPBM binding intensity (ln) of AAAACAAATGAGTACACACACATAAAAATTGAAAAT [CACACA_site199] ?
11.5

Quick one: gcPBM binding intensity (ln) of TAAGAAAAAGGCACACGTACATAATTCAAAATAAAT [XGTACX_site982] ?
11.3

Quick one: gcPBM binding intensity (ln) of AAAATATATACACAAACATGCATATAATAAATAAAT [TGCATGCA_site711] ?
9.89

Quick one: gcPBM binding intensity (ln) of AAAGTAAAAACACATACATGCATATACACATATAAC [TGCATGCA_site341] ?
9.9

Quick one: gcPBM binding intensity (ln) of CTTTATAATATTTGTTGTACACAAATATAACATATT [XGTACX_site709] ?
11.6
